- Target Under Test: T1, AFP158/HLA-A*02:01 complex (human)
- T1 construct: flowed over the chip in SPR; also called AFP158 pro
- Assay Name: SPR, KD ratio to AS170036 VL1VH1;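 further: crude scFv captured on a sensor chip, peptide–HLA complex passed over at several concentrations, association then buffer dissociation, KD derived from on- and off-rates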
Quick reference for Affinity increase among some binders
Quantity Name: Affinity increase (fold)

{"Binder": "LD97H (scFv, AS170036 VL1VH1 scFv mutein) scFv: QSALTQPRSVSGSPGQSVTISCAGTSSDVGSENYVSWYQQHPGKAPKLMIYQVNKRASGVPDRFSGSKSGNTASLTISGLQAEDEADYYCASYRSSHHNIVFGGGTKLTVLGGGGSGGGGSGGGGSEVQLVESGGGLVQPGGSLRLSCAASGFTFSSYAMSWVRQAPGKGLEWVSTINSGTGSPYYADSVKGRFTISRDNSKNTLYLQMNSLRAEDTAVYYCAKNFFDGSWFLGPPAMDYWGQGTLVTVSSHHHHHH", "Reported Result": 0.6}
{"Binder": "LY93Q (scFv, AS170036 VL1VH1 scFv mutein) scFv: QSALTQPRSVSGSPGQSVTISCAGTSSDVGSENYVSWYQQHPGKAPKLMIYQVNKRASGVPDRFSGSKSGNTASLTISGLQAEDEADYYCASQRSSDHNIVFGGGTKLTVLGGGGSGGGGSGGGGSEVQLVESGGGLVQPGGSLRLSCAASGFTFSSYAMSWVRQAPGKGLEWVSTINSGTGSPYYADSVKGRFTISRDNSKNTLYLQMNSLRAEDTAVYYCAKNFFDGSWFLGPPAMDYWGQGTLVTVSSHHHHHH", "Reported Result": 0.6}
{"Binder": "LY93I (scFv, AS170036 VL1VH1 scFv mutein) scFv: QSALTQPRSVSGSPGQSVTISCAGTSSDVGSENYVSWYQQHPGKAPKLMIYQVNKRASGVPDRFSGSKSGNTASLTISGLQAEDEADYYCASIRSSDHNIVFGGGTKLTVLGGGGSGGGGSGGGGSEVQLVESGGGLVQPGGSLRLSCAASGFTFSSYAMSWVRQAPGKGLEWVSTINSGTGSPYYADSVKGRFTISRDNSKNTLYLQMNSLRAEDTAVYYCAKNFFDGSWFLGPPAMDYWGQGTLVTVSSHHHHHH", "Reported Result": 0.6}
